E. coli, NIHJ measurements of MIC, listed per entry.

CO/N=C(\C(=O)N[C@@H]1C(=O)N2C(C(=O)[O-])=C(C[n+]3ccc(-c4nnco4)cc3)CS[C@H]12)c1csc(N)n1: < 0.1 µg/mL

Batch request: MIC for each of the following compounds.
1. CO/N=C(\C(=O)N[C@@H]1C(=O)N2C(C(=O)[O-])=C(C[n+]3ccc(-c4cnco4)cc3)CS[C@H]12)c1csc(N)n1
2. CO/N=C(\C(=O)N[C@@H]1C(=O)N2C(C(=O)[O-])=C(C[n+]3ccc(-c4ncc[nH]4)cc3)CS[C@H]12)c1csc(N)n1

OUTPUT:
< 0.1 µg/mL
< 0.1 µg/mL

---

Tested on: Ps. putida, IID 5121
Assay: Minimum Inhibitory Concentration, broth dilution method
Format: cell-based
Settings: Pseudomonas putida, IID5121, 10^6 cells/ml, 37° C., 18 hours
Description: |Minimum Inhibitory Concentration (MIC, μg/ml) |(Broth dilution method, inoculated amount: 10^6 cells/ml, incubated |at 37° C. for 18 hours)
Could you please mark MET for values of MIC below 3 µg/mL and NOT MET for values at or above it?

CO/N=C(\C(=O)N[C@@H]1C(=O)N2C(C(=O)[O-])=C(C[n+]3ccc(-c4ncco4)cc3)CS[C@H]12)c1csc(N)n1: NOT MET
CO/N=C(\C(=O)N[C@@H]1C(=O)N2C(C(=O)[O-])=C(C[n+]3ccc(-n4cncn4)cc3)CS[C@H]12)c1csc(N)n1: NOT MET
CO/N=C(\C(=O)N[C@@H]1C(=O)N2C(C(=O)O)=C(COC(C)=O)CS[C@H]12)c1csc(N)n1 [Cefotaxime, reference compound]: NOT MET
CO/N=C(\C(=O)N[C@@H]1C(=O)N2C(C(=O)[O-])=C(C[n+]3ccc(-c4cnco4)cc3)CS[C@H]12)c1csc(N)n1: NOT MET
CO/N=C(\C(=O)N[C@@H]1C(=O)N2C(C(=O)[O-])=C(C[n+]3ccc(-n4ccnc4)cc3)CS[C@H]12)c1csc(N)n1: MET

INPUT: Determine if CO/N=C(\C(=O)N[C@@H]1C(=O)N2C(C(=O)[O-])=C(C[n+]3ccc(-c4csnn4)cc3)CS[C@H]12)c1csc(N)n1 shows MIC strictly lower than 3 µg/mL.
OUTPUT: NOT MET

---

Pr. vulgaris, 08601 measurements of MIC, listed per entry.

CO/N=C(\C(=O)N[C@@H]1C(=O)N2C(C(=O)[O-])=C(C[n+]3cccc(-c4cnco4)c3)CS[C@H]12)c1csc(N)n1: 0.1 µg/mL
CO/N=C(\C(=O)N[C@@H]1C(=O)N2C(C(=O)[O-])=C(C[n+]3ccc(-c4ncc[nH]4)cc3)CS[C@H]12)c1csc(N)n1: < 0.1 µg/mL
CO/N=C(\C(=O)N[C@@H]1C(=O)N2C(C(=O)[O-])=C(C[n+]3ccc(-c4nnco4)cc3)CS[C@H]12)c1csc(N)n1: 0.1 µg/mL

Batch request: MIC for each of the following compounds.
1. CO/N=C(\C(=O)N[C@@H]1C(=O)N2C(C(=O)[O-])=C(C[n+]3ccc(-c4ncco4)cc3)CS[C@H]12)c1csc(N)n1
2. CO/N=C(\C(=O)N[C@@H]1C(=O)N2C(C(=O)[O-])=C(C[n+]3ccc(-c4csnn4)cc3)CS[C@H]12)c1csc(N)n1
3. CO/N=C(\C(=O)N[C@@H]1C(=O)N2C(C(=O)[O-])=C(C[n+]3ccc(-n4cncn4)cc3)CS[C@H]12)c1csc(N)n1

OUTPUT:
1: < 0.1 µg/mL; 2: < 0.1 µg/mL; 3: < 0.1 µg/mL

---

tested on: E. coli, NIHJ
parameterMeasured: MIC

Worked set:
CO/N=C(\C(=O)N[C@@H]1C(=O)N2C(C(=O)[O-])=C(C[n+]3cccc(-c4cnco4)c3)CS[C@H]12)c1csc(N)n1 [Compound G]: < 0.1 mg/L
CO/N=C(\C(=O)N[C@@H]1C(=O)N2C(C(=O)[O-])=C(C[n+]3ccc(-n4ccnc4)cc3)CS[C@H]12)c1csc(N)n1 [Compound A]: < 0.1 mg/L

INPUT: Any idea what MIC was measured for CO/N=C(\C(=O)N[C@@H]1C(=O)N2C(C(=O)[O-])=C(C[n+]3ccc(-c4ncco4)cc3)CS[C@H]12)c1csc(N)n1 [Compound D] ?
OUTPUT: < 0.1 mg/L

---

test system: E. coli, NIHJ
parameterMeasured: MIC

Worked set:
CO/N=C(\C(=O)N[C@@H]1C(=O)N2C(C(=O)[O-])=C(C[n+]3ccc(-n4cncn4)cc3)CS[C@H]12)c1csc(N)n1 [Compound B]: < 0.1 µg/mL
CO/N=C(\C(=O)N[C@@H]1C(=O)N2C(C(=O)[O-])=C(C[n+]3ccc(-c4csnn4)cc3)CS[C@H]12)c1csc(N)n1 [Compound H]: < 0.1 µg/mL

Would you kindly look at the next entry?
INPUT: Any idea what MIC was measured for CO/N=C(\C(=O)N[C@@H]1C(=O)N2C(C(=O)O)=C(COC(C)=O)CS[C@H]12)c1csc(N)n1 [Cefotaxime, reference compound] ?
OUTPUT: < 0.1 µg/mL

---

tested on: Ps. putida, IID 5121; assay: Minimum Inhibitory Concentration, broth dilution method; type: cell-based; settings: Pseudomonas putida, IID5121, 10^6 cells/ml, 37° C., 18 hours
parameterMeasured: MIC
Answer with the number, then the unit.

Worked set:
CO/N=C(\C(=O)N[C@@H]1C(=O)N2C(C(=O)[O-])=C(C[n+]3ccc(-c4ncc[nH]4)cc3)CS[C@H]12)c1csc(N)n1: 12.5 µg/mL
CO/N=C(\C(=O)N[C@@H]1C(=O)N2C(C(=O)[O-])=C(C[n+]3cccc(-c4cnco4)c3)CS[C@H]12)c1csc(N)n1: 12.5 µg/mL

Would you kindly look at the next entry?
INPUT: Any idea what MIC was measured for CO/N=C(\C(=O)N[C@@H]1C(=O)N2C(C(=O)[O-])=C(C[n+]3ccc(-c4nnco4)cc3)CS[C@H]12)c1csc(N)n1 ?
OUTPUT: 1.56 µg/mL

---

assay: acute toxicity, i.v. in mice; conditions: mouse, in vivo, iv
parameterMeasured: LD50

CO/N=C(\C(=O)N[C@@H]1C(=O)N2C(C(=O)[O-])=C(C[n+]3ccc(-c4ncco4)cc3)CS[C@H]12)c1csc(N)n1: > 4000 mg/kg
CO/N=C(\C(=O)N[C@@H]1C(=O)N2C(C(=O)[O-])=C(C[n+]3ccc(-c4nnco4)cc3)CS[C@H]12)c1csc(N)n1: > 4000 mg/kg

Batch request: LD50 for each of the following molecules.
1. CO/N=C(\C(=O)N[C@@H]1C(=O)N2C(C(=O)[O-])=C(C[n+]3ccc(-c4cnco4)cc3)CS[C@H]12)c1csc(N)n1
2. CO/N=C(\C(=O)N[C@@H]1C(=O)N2C(C(=O)[O-])=C(C[n+]3ccc(-n4ccnc4)cc3)CS[C@H]12)c1csc(N)n1

OUTPUT:
> 4000 mg/kg
2000 to 4000 mg/kg
